- Test system: CAK-1 Renal cancer cells
- experiment: in vitro cytotoxicity anti tumor activity
- Type: cell-based
- conditionDetails: Continuous Drug Exposure, observation at 70 hours; read-out: IC50
readoutLabel: pIC50
Give bare numbers, as −log10 of the molar value.

Ask: Which value of pIC50 has been reported for C[C@H](Cc1ccc(O)c(O)c1)[C@@H](C)Cc1ccc(O)c(O)c1 in the records?
Result: 4.27

---

- System: LOX-IMVI Melanoma cells
- experiment: in vitro cytotoxicity anti tumor activity
- Assay type: cell-based
- conditionDetails: Homo sapiens, Continuous Drug Exposure, observation at 70 hours, read-out: IC50
readoutLabel: IC50

Ask: Reported IC50, compound C[C@H](Cc1ccc(O)c(O)c1)[C@@H](C)Cc1ccc(O)c(O)c1 : ____
Result: 80 nM
